Biological target: Potassium channel (hERG) (Homo sapiens, UniProt Q12809)
Construct: Eurofins (Poitiers, France), contract assay
Sequence (Q12809 whole entry): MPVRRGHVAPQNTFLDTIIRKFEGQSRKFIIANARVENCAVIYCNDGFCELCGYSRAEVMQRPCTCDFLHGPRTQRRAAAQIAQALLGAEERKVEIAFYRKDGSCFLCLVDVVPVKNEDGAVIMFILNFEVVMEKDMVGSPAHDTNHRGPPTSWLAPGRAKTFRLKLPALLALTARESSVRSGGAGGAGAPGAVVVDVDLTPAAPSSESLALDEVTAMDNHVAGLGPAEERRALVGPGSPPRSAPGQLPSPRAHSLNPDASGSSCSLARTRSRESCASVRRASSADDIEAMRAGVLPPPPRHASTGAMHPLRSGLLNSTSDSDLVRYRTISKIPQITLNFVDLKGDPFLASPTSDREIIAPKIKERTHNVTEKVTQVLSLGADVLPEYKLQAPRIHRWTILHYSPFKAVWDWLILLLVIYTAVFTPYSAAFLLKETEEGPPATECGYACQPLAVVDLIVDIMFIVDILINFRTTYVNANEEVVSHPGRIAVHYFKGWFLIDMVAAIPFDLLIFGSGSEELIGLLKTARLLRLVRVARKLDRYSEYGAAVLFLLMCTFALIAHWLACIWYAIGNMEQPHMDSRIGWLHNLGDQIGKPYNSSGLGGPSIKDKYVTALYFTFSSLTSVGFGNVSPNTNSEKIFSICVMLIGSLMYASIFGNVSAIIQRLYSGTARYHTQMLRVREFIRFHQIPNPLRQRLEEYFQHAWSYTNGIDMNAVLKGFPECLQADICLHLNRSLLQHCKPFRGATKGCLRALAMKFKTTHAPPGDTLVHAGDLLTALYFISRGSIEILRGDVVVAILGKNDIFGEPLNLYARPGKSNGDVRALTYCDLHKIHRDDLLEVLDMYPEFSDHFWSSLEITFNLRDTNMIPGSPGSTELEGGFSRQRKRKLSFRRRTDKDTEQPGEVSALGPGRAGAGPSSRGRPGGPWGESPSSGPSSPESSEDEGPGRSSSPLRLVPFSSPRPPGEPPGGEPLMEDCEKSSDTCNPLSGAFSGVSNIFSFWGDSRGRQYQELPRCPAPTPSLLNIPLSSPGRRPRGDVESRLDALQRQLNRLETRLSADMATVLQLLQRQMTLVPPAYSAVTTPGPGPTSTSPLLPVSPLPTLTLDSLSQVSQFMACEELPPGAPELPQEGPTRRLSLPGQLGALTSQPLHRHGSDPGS
Experiment: Binding, potassium channel (hERG)
Details: 100 µM; human recombinant (HEK-293 cells)
API: label(entry) gives Criterion met if the entry's % Inhibition of Control Specific Binding, Potassium Channel (hERG) is strictly smaller than 2%; on equality or larger values it gives Criterion not met.

- COMPOUND: "O=C(Nc1ccccc1F)C(c1ccccc1)N1C(=O)CCC1=O (centres unmarked)"
  CATEGORY: "Criterion not met"
- COMPOUND: "O=C(NCc1cccc(OC(F)(F)F)c1)C(c1ccccc1)N1C(=O)CCC1=O (centres unmarked)"
  CATEGORY: "Criterion not met"
- COMPOUND: "O=C(NCCc1cccc(OC(F)(F)F)c1)C(c1ccccc1)N1C(=O)CCC1=O (centres unmarked)"
  CATEGORY: "Criterion met"
- COMPOUND: "O=C(NCCc1cccc(C(F)(F)F)c1)C(c1ccccc1)N1C(=O)CCC1=O (centres unmarked)"
  CATEGORY: "Criterion not met"
- COMPOUND: "O=C(NCCc1cccc(Cl)c1)C(c1ccccc1)N1C(=O)CCC1=O (centres unmarked)"
  CATEGORY: "Criterion not met"
- COMPOUND: "O=C(NCc1ccccc1C(F)(F)F)C(c1ccccc1)N1C(=O)CCC1=O (centres unmarked)"
  CATEGORY: "Criterion not met"
- COMPOUND: "O=C(NCCc1ccccc1)C(c1ccccc1)N1C(=O)CCC1=O (centres unmarked)"
  CATEGORY: "Criterion not met"
- COMPOUND: "O=C(Nc1ccccc1)C(c1ccccc1)N1C(=O)CCC1=O (centres unmarked)"
  CATEGORY: "Criterion met"

====

Known melting point of a selection of compounds
ENDPOINT_LABEL: melting point

- COMPOUND: "O=C(Nc1cccc(Cl)c1)C(c1ccccc1)N1C(=O)CCC1=O (centres unmarked)"
  ENDPOINT_RESULT: "109.4 to 109.9 °C"
- COMPOUND: "O=C(Nc1cccc(OC(F)(F)F)c1)C(c1ccccc1)N1C(=O)CCC1=O (centres unmarked)"
  ENDPOINT_RESULT: "132.6 to 133.4 °C"
- COMPOUND: "O=C(NCc1cccc(C(F)(F)F)c1)C(c1ccccc1)N1C(=O)CCC1=O (centres unmarked)"
  ENDPOINT_RESULT: "152.8 to 153.4 °C"
- COMPOUND: "O=C(NCc1ccc(Cl)cc1)C(c1ccccc1)N1C(=O)CCC1=O (centres unmarked)"
  ENDPOINT_RESULT: "146.3 to 147.9 °C"
- COMPOUND: "O=C(NCCc1ccccc1F)C(c1ccccc1)N1C(=O)CCC1=O (centres unmarked)"
  ENDPOINT_RESULT: "142.4 to 142.8 °C"

====

Recorded measurements of inhibition, one per entry
Biological target: Cav2.2 channel (Rattus norvegicus)
Construct: tissue Eurofins (Poitiers, France), contract assay; host or cells: rat cerebral cortex (own knowledge of the vendor's assay)
Sequence (Q02294 whole entry): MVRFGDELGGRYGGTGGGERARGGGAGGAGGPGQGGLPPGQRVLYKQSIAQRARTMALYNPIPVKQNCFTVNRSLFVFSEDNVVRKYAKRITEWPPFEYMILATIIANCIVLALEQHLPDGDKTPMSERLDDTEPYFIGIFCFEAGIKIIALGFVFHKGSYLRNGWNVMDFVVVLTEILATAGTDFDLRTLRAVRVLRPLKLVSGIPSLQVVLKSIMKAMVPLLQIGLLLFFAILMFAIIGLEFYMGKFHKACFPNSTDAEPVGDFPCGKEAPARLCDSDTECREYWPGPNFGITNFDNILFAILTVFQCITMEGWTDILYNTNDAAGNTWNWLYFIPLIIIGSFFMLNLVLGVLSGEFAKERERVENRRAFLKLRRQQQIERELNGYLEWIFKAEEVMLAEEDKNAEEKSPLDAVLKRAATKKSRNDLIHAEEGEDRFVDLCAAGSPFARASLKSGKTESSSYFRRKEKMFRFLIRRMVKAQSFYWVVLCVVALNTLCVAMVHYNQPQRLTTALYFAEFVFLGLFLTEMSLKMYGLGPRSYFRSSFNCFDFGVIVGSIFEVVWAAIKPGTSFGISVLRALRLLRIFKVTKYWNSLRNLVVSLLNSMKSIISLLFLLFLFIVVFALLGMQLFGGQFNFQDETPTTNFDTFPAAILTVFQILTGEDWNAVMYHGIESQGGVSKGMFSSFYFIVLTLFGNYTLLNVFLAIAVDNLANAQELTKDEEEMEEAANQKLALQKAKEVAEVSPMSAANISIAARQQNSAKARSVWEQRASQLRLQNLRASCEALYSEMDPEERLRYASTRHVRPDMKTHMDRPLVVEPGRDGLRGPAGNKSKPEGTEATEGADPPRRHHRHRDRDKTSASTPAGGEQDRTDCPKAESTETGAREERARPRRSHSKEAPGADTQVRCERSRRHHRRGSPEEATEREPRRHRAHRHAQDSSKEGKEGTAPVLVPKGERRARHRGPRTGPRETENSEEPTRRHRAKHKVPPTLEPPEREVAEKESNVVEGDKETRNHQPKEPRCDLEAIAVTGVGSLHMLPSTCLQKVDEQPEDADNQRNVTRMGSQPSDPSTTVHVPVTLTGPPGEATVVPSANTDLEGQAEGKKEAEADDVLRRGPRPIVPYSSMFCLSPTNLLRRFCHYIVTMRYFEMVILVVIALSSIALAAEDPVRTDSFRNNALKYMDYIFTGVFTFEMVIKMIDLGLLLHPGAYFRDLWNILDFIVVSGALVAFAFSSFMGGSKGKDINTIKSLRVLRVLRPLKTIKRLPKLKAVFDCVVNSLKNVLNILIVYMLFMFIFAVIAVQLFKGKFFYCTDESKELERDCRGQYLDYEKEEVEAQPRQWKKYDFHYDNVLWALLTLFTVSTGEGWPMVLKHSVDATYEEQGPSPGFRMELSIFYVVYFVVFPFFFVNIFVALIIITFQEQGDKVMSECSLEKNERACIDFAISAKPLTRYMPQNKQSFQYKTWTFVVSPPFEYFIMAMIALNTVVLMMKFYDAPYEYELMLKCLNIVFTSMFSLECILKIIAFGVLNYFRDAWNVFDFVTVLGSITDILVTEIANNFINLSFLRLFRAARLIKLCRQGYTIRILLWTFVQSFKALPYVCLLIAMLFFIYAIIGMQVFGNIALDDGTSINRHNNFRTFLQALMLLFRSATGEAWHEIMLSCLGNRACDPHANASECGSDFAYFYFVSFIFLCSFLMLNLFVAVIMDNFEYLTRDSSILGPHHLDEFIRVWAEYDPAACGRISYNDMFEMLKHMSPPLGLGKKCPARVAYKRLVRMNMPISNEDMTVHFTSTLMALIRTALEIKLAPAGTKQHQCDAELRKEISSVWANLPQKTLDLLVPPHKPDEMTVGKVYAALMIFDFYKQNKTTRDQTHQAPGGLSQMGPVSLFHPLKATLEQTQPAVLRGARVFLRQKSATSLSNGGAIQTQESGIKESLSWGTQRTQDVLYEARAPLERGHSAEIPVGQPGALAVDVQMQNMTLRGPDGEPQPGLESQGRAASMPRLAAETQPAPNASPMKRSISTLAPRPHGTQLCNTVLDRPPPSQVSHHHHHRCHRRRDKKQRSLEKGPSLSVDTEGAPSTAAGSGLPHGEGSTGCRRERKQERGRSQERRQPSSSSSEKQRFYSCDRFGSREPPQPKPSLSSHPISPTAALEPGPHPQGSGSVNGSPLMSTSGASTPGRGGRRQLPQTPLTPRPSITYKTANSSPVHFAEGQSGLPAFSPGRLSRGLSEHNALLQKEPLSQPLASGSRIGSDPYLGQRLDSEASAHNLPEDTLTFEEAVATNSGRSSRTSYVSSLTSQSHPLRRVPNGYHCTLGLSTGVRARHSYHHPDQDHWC
Sequence (P54287 whole entry partner): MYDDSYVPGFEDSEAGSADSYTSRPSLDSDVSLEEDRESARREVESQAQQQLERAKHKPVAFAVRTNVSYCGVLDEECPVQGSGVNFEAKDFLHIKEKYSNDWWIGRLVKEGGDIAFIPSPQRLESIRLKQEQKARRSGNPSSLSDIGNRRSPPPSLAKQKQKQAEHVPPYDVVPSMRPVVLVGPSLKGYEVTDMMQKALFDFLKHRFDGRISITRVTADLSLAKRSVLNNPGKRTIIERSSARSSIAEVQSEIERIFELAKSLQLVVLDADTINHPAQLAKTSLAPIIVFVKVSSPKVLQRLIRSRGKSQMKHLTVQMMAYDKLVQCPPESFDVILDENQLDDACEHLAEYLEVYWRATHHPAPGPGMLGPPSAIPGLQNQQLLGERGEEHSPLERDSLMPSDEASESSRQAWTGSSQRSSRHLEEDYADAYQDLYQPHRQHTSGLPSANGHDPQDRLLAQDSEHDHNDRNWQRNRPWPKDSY
Sequence (P54290 25-944 partner limits assumed): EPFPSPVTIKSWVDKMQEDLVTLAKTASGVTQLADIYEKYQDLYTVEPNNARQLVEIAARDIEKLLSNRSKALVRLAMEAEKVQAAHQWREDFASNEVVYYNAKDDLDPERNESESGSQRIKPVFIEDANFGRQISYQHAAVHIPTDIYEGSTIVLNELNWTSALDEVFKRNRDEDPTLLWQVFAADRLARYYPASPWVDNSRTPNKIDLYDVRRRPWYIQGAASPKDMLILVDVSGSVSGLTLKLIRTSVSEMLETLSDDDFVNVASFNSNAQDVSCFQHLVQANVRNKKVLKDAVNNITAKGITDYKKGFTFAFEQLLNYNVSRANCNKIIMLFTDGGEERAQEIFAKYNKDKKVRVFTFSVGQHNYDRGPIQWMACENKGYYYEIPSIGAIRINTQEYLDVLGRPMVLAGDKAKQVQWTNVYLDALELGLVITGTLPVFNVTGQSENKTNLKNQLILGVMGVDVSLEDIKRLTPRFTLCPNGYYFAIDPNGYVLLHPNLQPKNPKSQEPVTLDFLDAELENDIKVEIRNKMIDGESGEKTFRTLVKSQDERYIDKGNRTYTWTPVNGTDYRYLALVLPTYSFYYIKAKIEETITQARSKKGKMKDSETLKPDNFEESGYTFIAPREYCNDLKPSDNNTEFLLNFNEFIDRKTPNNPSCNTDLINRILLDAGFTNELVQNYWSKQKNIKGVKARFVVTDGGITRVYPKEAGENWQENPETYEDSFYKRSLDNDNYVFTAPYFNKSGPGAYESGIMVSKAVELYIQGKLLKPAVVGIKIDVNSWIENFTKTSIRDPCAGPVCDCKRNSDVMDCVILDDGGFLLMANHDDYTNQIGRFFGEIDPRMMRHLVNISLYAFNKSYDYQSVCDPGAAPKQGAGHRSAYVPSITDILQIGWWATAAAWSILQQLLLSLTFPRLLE
Sequence (P54290 945-1091 partner limits assumed): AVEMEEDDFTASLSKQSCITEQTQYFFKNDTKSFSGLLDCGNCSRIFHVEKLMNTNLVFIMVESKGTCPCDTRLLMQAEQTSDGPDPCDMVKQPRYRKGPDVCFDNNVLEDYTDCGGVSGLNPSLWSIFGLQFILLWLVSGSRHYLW
Test: Radioligand binding, Cav2.2 channel
Set-up: dose or concentration left out as unconfirmed
Conditions: rat cerebral cortex; read-out: % Inhibition of Control Specific Binding, Cav2.2 Channel (Antagonist Radioligand)
ENDPOINT_LABEL: inhibition (%)

- COMPOUND: "O=C(NCCc1cccc(Cl)c1)C(c1ccccc1)N1C(=O)CCC1=O (centres unmarked) [Compound 27]"
  ENDPOINT_RESULT: 3.8
- COMPOUND: "O=C(NCc1ccccc1C(F)(F)F)C(c1ccccc1)N1C(=O)CCC1=O (centres unmarked) [Compound 21]"
  ENDPOINT_RESULT: 0.2
- COMPOUND: "O=C(NCc1cccc(OC(F)(F)F)c1)C(c1ccccc1)N1C(=O)CCC1=O (centres unmarked) [Compound 24]"
  ENDPOINT_RESULT: 5.5
- COMPOUND: "O=C(Nc1ccccc1F)C(c1ccccc1)N1C(=O)CCC1=O (centres unmarked) [Compound 4]"
  ENDPOINT_RESULT: 1.1
- COMPOUND: "O=C(Nc1ccccc1)C(c1ccccc1)N1C(=O)CCC1=O (centres unmarked) [Compound 3]"
  ENDPOINT_RESULT: 3.6

====

Experiment: in vivo
Conditions: mouse, ip

- COMPOUND: "Nc1nnc(-c2cccc(Cl)c2Cl)c(N)n1 [LTG, lamotrigine, reference compound]"
  TD50 at 0.5 h: "48.3 mg/kg"

====

Listing of entries alongside the reported responders at 100 mg/kg.
System: 6 Hz (32 mA) seizures, mice
Test: Psychomotor 6 Hz (32 mA) seizure model
Type: in vivo
Conditions: Mus musculus, ip, 100 mg/kg, 0.5 h, read-out: 6 Hz (32 mA) test, number of mice protected / number of mice tested (converted)

- COMPOUND: "O=C(Nc1ccccc1)C(c1ccccc1)N1C(=O)CCC1=O (stereo not drawn)"
  STUDY_SYSTEM: "6 Hz (32 mA) seizures, mice"
  responders at 100 mg/kg, %: 75
- COMPOUND: "O=C(Nc1cccc(F)c1)C(c1ccccc1)N1C(=O)CCC1=O (stereo not drawn)"
  STUDY_SYSTEM: "6 Hz (32 mA) seizures, mice"
  responders at 100 mg/kg, %: 25
- COMPOUND: "O=C(Nc1ccccc1F)C(c1ccccc1)N1C(=O)CCC1=O (stereo not drawn)"
  STUDY_SYSTEM: "6 Hz (32 mA) seizures, mice"
  responders at 100 mg/kg, %: 25
- COMPOUND: "O=C(NCc1cccc(Cl)c1)C(c1ccccc1)N1C(=O)CCC1=O (stereo not drawn)"
  STUDY_SYSTEM: "6 Hz (32 mA) seizures, mice"
  responders at 100 mg/kg, %: 50
- COMPOUND: "O=C(NCCc1ccccc1)C(c1ccccc1)N1C(=O)CCC1=O (stereo not drawn)"
  STUDY_SYSTEM: "6 Hz (32 mA) seizures, mice"
  responders at 100 mg/kg, %: 75
- COMPOUND: "O=C(NCc1cccc(OC(F)(F)F)c1)C(c1ccccc1)N1C(=O)CCC1=O (stereo not drawn)"
  STUDY_SYSTEM: "6 Hz (32 mA) seizures, mice"
  responders at 100 mg/kg, %: 100
- COMPOUND: "O=C(NCCc1cccc(OC(F)(F)F)c1)C(c1ccccc1)N1C(=O)CCC1=O (stereo not drawn)"
  STUDY_SYSTEM: "6 Hz (32 mA) seizures, mice"
  responders at 100 mg/kg, %: 75
- COMPOUND: "O=C(Nc1ccccc1Cl)C(c1ccccc1)N1C(=O)CCC1=O (stereo not drawn)"
  STUDY_SYSTEM: "6 Hz (32 mA) seizures, mice"
  responders at 100 mg/kg, %: 25
- COMPOUND: "O=C(NCCc1cccc(Cl)c1)C(c1ccccc1)N1C(=O)CCC1=O (stereo not drawn)"
  STUDY_SYSTEM: "6 Hz (32 mA) seizures, mice"
  responders at 100 mg/kg, %: 75
- COMPOUND: "O=C(NCCc1ccc(Cl)cc1)C(c1ccccc1)N1C(=O)CCC1=O (stereo not drawn)"
  STUDY_SYSTEM: "6 Hz (32 mA) seizures, mice"
  responders at 100 mg/kg, %: 75
- COMPOUND: "O=C(Nc1cccc(Cl)c1)C(c1ccccc1)N1C(=O)CCC1=O (stereo not drawn)"
  STUDY_SYSTEM: "6 Hz (32 mA) seizures, mice"
  responders at 100 mg/kg, %: 25
- COMPOUND: "O=C(Nc1ccc(Cl)cc1)C(c1ccccc1)N1C(=O)CCC1=O (stereo not drawn)"
  STUDY_SYSTEM: "6 Hz (32 mA) seizures, mice"
  responders at 100 mg/kg, %: 25
- COMPOUND: "O=C(NCCc1cccc(C(F)(F)F)c1)C(c1ccccc1)N1C(=O)CCC1=O (stereo not drawn)"
  STUDY_SYSTEM: "6 Hz (32 mA) seizures, mice"
  responders at 100 mg/kg, %: 75
- COMPOUND: "O=C(NCc1cccc(C(F)(F)F)c1)C(c1ccccc1)N1C(=O)CCC1=O (stereo not drawn)"
  STUDY_SYSTEM: "6 Hz (32 mA) seizures, mice"
  responders at 100 mg/kg, %: 50
- COMPOUND: "O=C(NCc1ccccc1C(F)(F)F)C(c1ccccc1)N1C(=O)CCC1=O (stereo not drawn)"
  STUDY_SYSTEM: "6 Hz (32 mA) seizures, mice"
  responders at 100 mg/kg, %: 25
- COMPOUND: "O=C(Nc1ccc(F)cc1)C(c1ccccc1)N1C(=O)CCC1=O (stereo not drawn)"
  STUDY_SYSTEM: "6 Hz (32 mA) seizures, mice"
  responders at 100 mg/kg, %: 50
- COMPOUND: "O=C(NCc1ccccc1)C(c1ccccc1)N1C(=O)CCC1=O (stereo not drawn)"
  STUDY_SYSTEM: "6 Hz (32 mA) seizures, mice"
  responders at 100 mg/kg, %: 50
- COMPOUND: "O=C(NCCCc1ccccc1)C(c1ccccc1)N1C(=O)CCC1=O (stereo not drawn)"
  STUDY_SYSTEM: "6 Hz (32 mA) seizures, mice"
  responders at 100 mg/kg, %: 50
